Data credit: ChEMBL document CHEMBL5321206

tgt: Nitric oxide synthase 3 (Bos taurus)
Sequence (P29473 whole entry): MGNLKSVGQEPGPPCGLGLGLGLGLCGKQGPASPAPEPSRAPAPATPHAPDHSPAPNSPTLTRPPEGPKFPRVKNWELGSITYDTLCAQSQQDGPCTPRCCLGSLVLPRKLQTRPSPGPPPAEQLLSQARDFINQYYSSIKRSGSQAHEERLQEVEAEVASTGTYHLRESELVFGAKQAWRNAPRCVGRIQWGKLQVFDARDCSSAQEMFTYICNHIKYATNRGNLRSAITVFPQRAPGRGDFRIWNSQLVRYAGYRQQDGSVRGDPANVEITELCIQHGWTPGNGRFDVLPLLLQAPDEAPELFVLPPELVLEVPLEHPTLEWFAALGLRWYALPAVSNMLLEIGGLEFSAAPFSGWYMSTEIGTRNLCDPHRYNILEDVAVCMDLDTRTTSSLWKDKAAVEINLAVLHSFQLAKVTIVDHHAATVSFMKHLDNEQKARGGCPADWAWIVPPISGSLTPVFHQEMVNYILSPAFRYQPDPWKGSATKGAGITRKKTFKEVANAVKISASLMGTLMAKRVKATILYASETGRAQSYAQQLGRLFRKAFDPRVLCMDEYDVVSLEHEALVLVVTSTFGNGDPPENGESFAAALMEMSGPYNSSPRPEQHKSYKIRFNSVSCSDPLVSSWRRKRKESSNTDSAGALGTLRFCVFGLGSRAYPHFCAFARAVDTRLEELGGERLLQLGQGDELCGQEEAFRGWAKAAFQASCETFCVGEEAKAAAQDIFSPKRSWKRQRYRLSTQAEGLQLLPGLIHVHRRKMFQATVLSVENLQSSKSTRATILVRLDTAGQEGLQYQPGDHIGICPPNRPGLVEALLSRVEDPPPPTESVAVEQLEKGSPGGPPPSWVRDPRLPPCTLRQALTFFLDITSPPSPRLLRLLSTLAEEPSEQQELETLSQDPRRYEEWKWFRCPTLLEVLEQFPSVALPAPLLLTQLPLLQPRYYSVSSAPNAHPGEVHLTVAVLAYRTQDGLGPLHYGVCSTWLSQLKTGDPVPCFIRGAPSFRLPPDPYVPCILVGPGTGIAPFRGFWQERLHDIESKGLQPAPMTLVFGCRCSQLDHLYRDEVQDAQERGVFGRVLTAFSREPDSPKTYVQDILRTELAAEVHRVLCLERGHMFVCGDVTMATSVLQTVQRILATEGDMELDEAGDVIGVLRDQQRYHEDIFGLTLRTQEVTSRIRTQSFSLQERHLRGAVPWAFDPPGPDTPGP
measuredProperty: IC50

input: Look at this compound and give its reported IC50. "Br.Cc1ccc(S(=O)(=O)NCc2cccc(CNC(=N)c3ccccc3)c2)cc1"
output: > 50 µM

* * *

tgt: Nitric oxide synthase, inducible (Homo sapiens, UniProt P35228)
Sequence (P35228 whole entry): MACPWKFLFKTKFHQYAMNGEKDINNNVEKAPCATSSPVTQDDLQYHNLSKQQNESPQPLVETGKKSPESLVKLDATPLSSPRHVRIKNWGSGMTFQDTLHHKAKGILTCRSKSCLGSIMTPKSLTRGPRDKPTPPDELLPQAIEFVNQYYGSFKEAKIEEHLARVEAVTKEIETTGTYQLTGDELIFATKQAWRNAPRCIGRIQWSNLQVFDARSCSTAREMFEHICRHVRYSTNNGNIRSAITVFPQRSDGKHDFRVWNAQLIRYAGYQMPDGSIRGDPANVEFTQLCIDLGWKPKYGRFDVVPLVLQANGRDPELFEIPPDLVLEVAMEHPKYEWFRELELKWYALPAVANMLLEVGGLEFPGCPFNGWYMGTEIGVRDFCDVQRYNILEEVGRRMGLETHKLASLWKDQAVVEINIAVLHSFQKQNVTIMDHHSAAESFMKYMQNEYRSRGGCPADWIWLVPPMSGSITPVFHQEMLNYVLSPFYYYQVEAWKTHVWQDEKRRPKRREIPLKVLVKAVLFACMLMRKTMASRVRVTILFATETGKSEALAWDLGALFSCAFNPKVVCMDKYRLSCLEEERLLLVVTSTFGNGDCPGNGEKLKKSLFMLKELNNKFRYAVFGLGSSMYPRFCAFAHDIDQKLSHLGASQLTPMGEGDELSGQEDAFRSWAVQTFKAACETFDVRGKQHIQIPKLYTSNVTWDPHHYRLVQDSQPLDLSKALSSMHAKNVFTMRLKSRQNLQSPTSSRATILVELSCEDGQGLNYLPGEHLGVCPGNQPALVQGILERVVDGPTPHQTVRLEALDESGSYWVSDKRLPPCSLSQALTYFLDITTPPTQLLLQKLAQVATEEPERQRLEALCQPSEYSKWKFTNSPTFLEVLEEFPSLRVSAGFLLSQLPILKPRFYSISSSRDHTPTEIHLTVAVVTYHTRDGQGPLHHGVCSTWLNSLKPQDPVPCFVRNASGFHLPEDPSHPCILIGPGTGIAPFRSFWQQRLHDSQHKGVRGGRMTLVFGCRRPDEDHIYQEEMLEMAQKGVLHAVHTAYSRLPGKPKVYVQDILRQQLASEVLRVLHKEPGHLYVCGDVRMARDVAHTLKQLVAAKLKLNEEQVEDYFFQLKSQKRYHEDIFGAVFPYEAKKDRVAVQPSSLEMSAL
testName: Inhibition of N-terminal his6-tagged recombinant human iNOS expressed in Escherichia coli at 1 uM preincubated for 15 mins followed by NADPH addition and measured after 30 mins by HPLC analysis relative to control
condition: time 45.0 min
Activity calls are given as the source filed them. The rule behind the calls is not given here.
measuredProperty: inhibition

Answered cases to consult:
                                   compound  measuredproperty    result
0  N=C(NCc1cccc(CNS(=O)(=O)c2ccc([N+](=O)[O-])cc2)c1)c1ccc(Cl)cc1        inhibition       65%
1  Cc1ccc(S(=O)(=O)NCc2cccc(CNC(=N)c3ccc(C(F)(F)F)cc3)c2)cc1        inhibition       59%
2  CC(=N)NCc1ccc(NS(=O)(=O)c2ccc([N+](=O)[O-])cc2)cc1        inhibition  inactive
3  Cc1ccc(S(=O)(=O)NCc2cccc(CNC(=N)c3ccc(Cl)cc3)c2)cc1        inhibition       72%
4  CC(=N)NCc1cccc(CNS(=O)(=O)c2ccc(C)cc2)c1        inhibition  inactive

input: Look at this molecule and give its reported inhibition. "N=C(NCc1cccc(CNS(=O)(=O)c2ccc([N+](=O)[O-])cc2)c1)c1ccccc1"
output: 71%

input: Look at this molecule and give its reported inhibition. "N=C(NCc1ccc(NS(=O)(=O)c2ccc([N+](=O)[O-])cc2)cc1)c1ccc(C(F)(F)F)cc1"
output: inactive

input: Look at this molecule and give its reported inhibition. "Br.Cc1ccc(S(=O)(=O)NCc2cccc(CNC(=N)c3ccccc3)c2)cc1"
output: 83%

input: Look at this molecule and give its reported inhibition. "N=C(NCc1ccc(NS(=O)(=O)c2ccc([N+](=O)[O-])cc2)cc1)c1ccc(Cl)cc1"
output: 69%

input: Look at this molecule and give its reported inhibition. "N=C(NCc1cccc(CNS(=O)(=O)c2ccc([N+](=O)[O-])cc2)c1)c1ccc(C(F)(F)F)cc1"
output: 72%

input: Look at this molecule and give its reported inhibition. "N=C(NCc1ccc(NS(=O)(=O)c2ccc([N+](=O)[O-])cc2)cc1)c1ccccc1"
output: 52%
